Source listed as PubChem BioAssay (NCI).

Tested on: SF-268 CNS
Experiment: NCI tumour cell line growth inhibition, 48 h
This listing pairs compounds with measured TGI.

compound	TGI
CCn1cc(C(=O)O)c(=O)c2cc(F)c(N3CCN(Cn4c(O)c(N=NC(=O)c5ccncc5)c5cc(Cl)ccc54)CC3)cc21	> 100 µM
O=C1CC(n2cccc2)c2cc(Br)sc21 (stereo unspecified)	> 100 µM
O=C1CCC(NC(=O)Cc2ccc(O)cc2)C(=O)N1 (stereo unspecified)	> 2500 µM
CO[C@@]12C[C@@H](CNC(=O)c3cc(Br)c[nH]3)O[C@@H]1NC(=O)N2	> 100 µM

Enquiry: Entry CCOC(=O)c1c(-c2ccc(Cl)cc2)c(C#N)c(=S)n(C2OC(CO)C(O)C(O)C2O)c1-c1ccccc1 (stereo unspecified) : reported TGI = ?
Return: 55.9 µM

Enquiry: Try the compound CCC(=O)Nc1ccc2c(c1)CN1C(=O)c3ccccc3C1=N2
Return: > 100 µM

Enquiry: Try the compound CC(C)[Si](OCC/C=C/C1CCC(=O)C1C(O)C1CCCCC1)(C(C)C)C(C)C (stereo unspecified)
Return: 24.7 µM

Enquiry: Try the compound c1cncc(-c2cc(-c3cc(-c4cccnc4)n[nH]3)[nH]n2)c1
Return: > 100 µM

Enquiry: Try the compound O=c1[nH]cnc2c1nnn2[C@@H]1O[C@H](CO)[C@@H](O)[C@H]1O
Return: > 100 µM

* * *

This listing pairs compounds with measured GI50.
System: SK-OV-3 ovarian
Assay: NCI tumour cell line growth inhibition, 48 h

Illustrative cases are given below, each with its answer.
COc1cc(-c2ccc(-[n+]3nc(-c4ccc([N+](=O)[O-])cc4)nn3-c3ccc([N+](=O)[O-])cc3)c(OC)c2)ccc1-[n+]1nc(-c2ccc([N+](=O)[O-])cc2)nn1-c1ccc([N+](=O)[O-])cc1 9.08 µM
CN1CCN(Cc2ccc(NC(=O)c3[nH]ncc3Nc3ccnc4ccsc34)cc2)CC1 1.05 µM
O=C(CSc1nc2sc3c(c2c(=O)n1-c1ccccc1)CCCCC3)N/N=C/c1ccc(F)cc1 3.47 µM
O=C(Nc1nc(-c2ccc(Cl)cc2)cs1)c1ccc(O)c(O)c1 6.83 µM
COc1ccc2c(c1)C(=O)c1c-2c(N2CCN(C(=O)CN(C)C)CC2)nc2ccccc12 19.6 µM

Enquiry: Entry N#Cc1c(N)nc(N2CCOCC2)c(C#N)c1-c1cccc(O)c1 : reported GI50 = ?
Return: 70.9 µM

Enquiry: Try the compound COc1cc2c(cc1OCCCCCN1CCN(c3cc(=O)oc4c(C)c(OC)ccc34)CC1)N=C[C@@H]1CCCN1C2=O
Return: 0.0435 µM

* * *

Tested on: MALME-3M melanoma
Experiment: NCI tumour cell line growth inhibition, 48 h
recorded_endpoint: TGI (µM)
Use µM as the unit, but write only the number.

compound	recorded_endpoint	number
Cc1nc2c(n1CCCl)C(=O)c1ccccc1C2=O	TGI	19.2
C/C=C/C/C=C/CCC(=O)C1OC1C(N)=O (stereo unspecified)	TGI	32.9

Consider now this further compound.
Enquiry: Entry O=C1C=CC(=O)N1c1ccc2c(c1)Cc1cc(NC(=O)C(F)(F)F)ccc1-2 : reported TGI = ?
Return: 40.1

* * *

Test system: 786-0 renal
Assay: NCI tumour cell line growth inhibition, 48 h
recorded_endpoint: TGI

Illustrative cases are given below, each with its answer.
compound	TGI
COc1ccc(C2c3cc4c(cc3OC(O)(CO)C2C(=O)O)OCO4)c(OC)c1OC (centres undefined) (tested in a mixture with another compound)	> 100 µM
NC1=NN(c2ccccc2)C(=O)C1C(=O)C(=O)Nc1cccc(C(F)(F)F)c1 (centres undefined)	> 100 µM
CN1CCN(Cc2ccc(NC(=O)c3[nH]ncc3Nc3ccnc4ccsc34)cc2)CC1	13.6 µM
Cc1nc(Cl)c(C)c(Cl)n1	> 100 µM
O=C1OC2(c3ccccc31)c1cc(I)c(O)c(I)c1Oc1c2cc(I)c(O)c1I	> 100 µM

Enquiry: For the record N#Cc1c(N)nc(N2CCOCC2)c(C#N)c1-c1cccc(O)c1 , what value of TGI is listed for 786-0 renal?
Return: > 100 µM

Enquiry: Try the compound CC1CC(C)C(=O)C(C(=O)CC2CC(=O)NC2=O)C1 (centres undefined)
Return: > 100 µM

Enquiry: Try the compound CCCN(CCC)C(=S)N/N=C/c1cccc(C)n1
Return: 1.37 µM

Enquiry: Try the compound C[C@]12CC[C@H]3[C@@H](CC=C4C[C@@H](O)CC[C@@]43C)[C@@H]1C/C(=C\c1cccc(OCCCn3ccnc3)c1)[C@@H]2O
Return: 35 µM
